Test system: Amaranthus palmeri (AMAPA)
Test: Post-emergence herbicidal glasshouse test
Assay type: in vivo
Details: 250 g/ha, evaluated after 13 days
Recorded measurements of percentage damage caused to the plant (five-point scale), AMAPA, one per entry
TEST_READOUT: percentage damage caused to the plant (five-point scale), AMAPA

FC(F)CCCn1nc(C(F)F)cc1Cc1ncc(Cl)cn1 [Compound 1.004]; 3 (41-60%)
FC(F)c1cc(Cc2ncc(Cl)cn2)n(CCn2ccc(C(F)(F)F)n2)n1 [Compound 1.038]; 1 (0-20%)
N#CC1(Cn2nc(C(F)(F)F)cc2Cc2ncc(Cl)cn2)CC1 [Compound 1.022]; 4 (61-80%)
FC(F)c1cc(Cc2ncc(Cl)cn2)n(CCC2CC2)n1 [Compound 1.003]; 1 (0-20%)
CS(=O)(=O)CCn1nc(C(F)F)cc1Cc1ncc(Cl)cn1 [Compound 1.023]; 2 (21-40%)

----------
Test system: Amaranthus retoflexus (AMARE)
Assay: Post-emergence herbicidal glasshouse test
Assay type: in vivo
Conditions: 250 g/ha, evaluated after 13 days
TEST_READOUT: percentage damage caused to the plant (five-point scale), AMARE

FC(F)(F)c1cc(Cc2ncc(Cl)cn2)n(C2CCCC2)n1; 4 (61-80%)
FC(F)CCCn1nc(C(F)(F)F)cc1Cc1ncc(Cl)cn1; 5 (81-100%)
FC(F)CCCn1nc(C(F)F)cc1Cc1ncc(Cl)cn1; 3 (41-60%)
CS(=O)(=O)CCn1nc(C(F)F)cc1Cc1ncc(Cl)cn1; 2 (21-40%)
FC(F)c1cc(Cc2ncc(Cl)cn2)n(CCn2ccc(C(F)(F)F)n2)n1; 1 (0-20%)
N#CC1(Cn2nc(C(F)F)cc2Cc2ccc(Cl)cc2)CC1; 1 (0-20%)
CCCCn1nc(C(F)(F)Cl)cc1Cc1ncc(Cl)cn1; 5 (81-100%)
FC(F)(F)CCCn1nc(C(F)(F)F)cc1Cc1ncc(Cl)cn1; 5 (81-100%)
CCCCn1nc(C(F)F)cc1Cc1ncc(Cl)cn1; 2 (21-40%)

----------
Test system: Amaranthus palmeri (AMAPA)
Test: Post-emergence herbicidal glasshouse test
Format: in vivo
Conditions: 250 g/ha, evaluated after 13 days
Recorded measurements of percentage damage caused to the plant (five-point scale), AMAPA, one per entry
TEST_READOUT: percentage damage caused to the plant (five-point scale), AMAPA

CCCCn1nc(C(F)(F)Cl)cc1Cc1ncc(Cl)cn1; 4 (61-80%)
N#CC1(Cn2nc(C(F)F)cc2Cc2ccc(Cl)cc2)CC1; 1 (0-20%)
CCCCn1nc(C(F)F)cc1Cc1ncc(Cl)cn1; 2 (21-40%)
FC(F)(F)CCn1nc(C(F)(F)F)cc1Cc1ncc(Cl)cn1; 4 (61-80%)
FC(F)CCn1nc(C(F)F)cc1Cc1ncc(Cl)cn1; 3 (41-60%)
C=CCn1nc(C(F)F)cc1Cc1ncc(Cl)cn1; 1 (0-20%)
Fc1cc(Cl)cnc1Cc1cc(C(F)(F)F)nn1CCC(F)(F)F; 4 (61-80%)
CCSCCn1nc(C(F)F)cc1Cc1ncc(Cl)cn1; 5 (81-100%)
FC(F)CCn1nc(C(F)(F)Cl)cc1Cc1ncc(Cl)cn1; 4 (61-80%)
C=Cn1nc(C(F)F)cc1Cc1ncc(Cl)cn1; 3 (41-60%)

Attribution: patent US20260365634A1
